Target: TF/VIIa (Homo sapiens, UniProt P08709)
Sequence (P08709 213-466 limits assumed): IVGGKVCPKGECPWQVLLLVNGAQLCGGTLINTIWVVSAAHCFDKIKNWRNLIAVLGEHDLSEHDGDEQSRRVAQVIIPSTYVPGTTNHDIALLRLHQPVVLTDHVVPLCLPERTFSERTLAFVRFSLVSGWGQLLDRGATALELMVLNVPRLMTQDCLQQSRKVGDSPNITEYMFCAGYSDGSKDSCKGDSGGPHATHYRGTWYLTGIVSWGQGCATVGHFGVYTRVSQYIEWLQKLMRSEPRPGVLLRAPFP
Sequence (P08709 61-212 limits assumed): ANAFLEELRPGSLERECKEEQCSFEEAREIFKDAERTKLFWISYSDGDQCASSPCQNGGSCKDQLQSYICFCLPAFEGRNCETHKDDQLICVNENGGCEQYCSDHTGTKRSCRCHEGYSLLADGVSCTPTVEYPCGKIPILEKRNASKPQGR
Sequence (P13726 33-295 partner): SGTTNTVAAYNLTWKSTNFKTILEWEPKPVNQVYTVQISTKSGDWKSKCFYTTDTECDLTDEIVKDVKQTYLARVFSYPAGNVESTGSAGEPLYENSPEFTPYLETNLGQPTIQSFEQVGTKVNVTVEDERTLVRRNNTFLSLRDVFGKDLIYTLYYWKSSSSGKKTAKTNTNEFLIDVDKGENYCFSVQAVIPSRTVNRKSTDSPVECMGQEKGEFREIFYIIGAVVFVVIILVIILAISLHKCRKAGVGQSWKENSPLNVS
Experiment: Inhibition of TF/VIIa ("Affinity to receptors")
Flag rule - IC50 less than 70 nM flags Met; the remaining entries get Not met.

Consider the worked cases shown below.
**Q:** Is IC50 strictly under 70 nM for the entry CS(=O)(=O)c1ccccc1-c1ccc(NC(=O)N(Cc2ccccc2)Cc2cccc(C(=N)N)c2)cc1 ?
**A:** Met

**Q:** Is IC50 strictly under 70 nM for the entry CCCN(Cc1cccc(C(=N)N)c1)C(=O)Nc1ccc(-c2ccccc2S(N)(=O)=O)cc1 ?
**A:** Not met

**Q:** Is IC50 strictly under 70 nM for the entry CCCN(Cc1cccc(C(=N)N)c1)C(=O)Nc1ccc(-c2ccccc2S(C)(=O)=O)cc1 ?
**A:** Met

New cases:
**Q:** Is IC50 strictly under 70 nM for the entry N=C(N)c1cccc(CN(C(=O)Nc2ccc(-c3ccccc3S(N)(=O)=O)cc2)c2ccccc2)c1 ?
**A:** Not met

Source listed as patent US20030171579A1.
